Data provenance is ChEMBL document CHEMBL4364283.

Values of Ki reported for UniProtKB O00255 appear below.
Sequence (O00255 whole entry): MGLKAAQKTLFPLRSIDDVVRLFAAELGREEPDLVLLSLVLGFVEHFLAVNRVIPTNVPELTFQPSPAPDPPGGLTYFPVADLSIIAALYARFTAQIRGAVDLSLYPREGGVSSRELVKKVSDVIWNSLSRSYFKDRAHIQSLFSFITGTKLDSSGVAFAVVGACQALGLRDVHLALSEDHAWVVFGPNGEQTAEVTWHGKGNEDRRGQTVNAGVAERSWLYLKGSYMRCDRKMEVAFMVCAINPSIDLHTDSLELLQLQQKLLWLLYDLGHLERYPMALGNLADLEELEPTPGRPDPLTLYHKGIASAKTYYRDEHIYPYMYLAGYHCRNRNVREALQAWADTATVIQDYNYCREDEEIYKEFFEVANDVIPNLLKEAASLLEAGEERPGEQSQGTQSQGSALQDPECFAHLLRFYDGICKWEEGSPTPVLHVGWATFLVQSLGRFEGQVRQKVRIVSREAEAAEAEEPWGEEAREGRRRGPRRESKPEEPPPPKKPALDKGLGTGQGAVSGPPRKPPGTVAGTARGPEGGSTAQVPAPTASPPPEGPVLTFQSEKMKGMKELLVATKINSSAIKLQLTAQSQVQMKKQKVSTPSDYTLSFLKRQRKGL
I'd appreciate it if you wrote the number followed by its unit.

Worked examples, 3 molecules total:
MOLECULE	READOUT KIND	RESULT
CC(C)N1Cc2ccccc2C(C2CCCC2)(C2CCN(CC3CN(c4ccc(S(=O)(=O)c5ccncc5)cc4)C3)CC2)C1 (centres undefined)	Ki	1.4 nM
CS(=O)(=O)c1ccc(N2CC(CN3CCC(C4(C5CCCC5)NCCc5ccccc54)CC3)C2)cc1 (centres undefined)	Ki	45 nM
O=S(=O)(c1ccccc1)c1ccc(N2CC(CN3CCC(C4(C5CCCC5)NCCc5ccccc54)CC3)C2)cc1 (centres undefined)	Ki	5.6 nM

// switching to the query molecule
IN: Give Ki; test system UniProtKB O00255; molecule CC(=O)O[C@H]1CCC[C@@H]1[C@](C#N)(c1ccccc1)C1CCN(CC2CN(c3ccc(C#N)cc3)C2)CC1 (mixture of isomers)
OUT: 12 nM
